Each item that follows carries a reported GI50.
# System: T-47D (breast)
# PROTOCOL DESCRIPTION: Antiproliferative SBR assay (NCI protocol), T-47D
# Assay type: cell-based, human
# APPLIED CONDITIONS: Homo sapiens, T47D; 48 h exposure, n = 3, mean ± SD; multidrug-resistant line

{"COMPOUND": "NS(=O)(=O)c1ccc(CCNC(=S)N/N=C/c2ccc(Cl)cc2)cc1 [Compound 4o]", "GI50": "> 100 µM"}
{"COMPOUND": "NS(=O)(=O)c1cccc(NC(=S)N/N=C/c2ccc(Br)cc2)c1 [Compound 4k]", "GI50": "> 100 µM"}
{"COMPOUND": "NS(=O)(=O)c1cccc(NC(=S)N/N=C/c2ccc(F)cc2)c1 [Compound 4i]", "GI50": "> 100 µM"}
{"COMPOUND": "NS(=O)(=O)c1ccc(NC(=S)N/N=C/c2ccc([N+](=O)[O-])cc2)cc1 [Compound 4f]", "GI50": "> 100 µM"}
{"COMPOUND": "NS(=O)(=O)c1ccc(CCNC(=S)N/N=C/c2ccc(Br)cc2)cc1 [Compound 4p]", "GI50": "37 µM"}
{"COMPOUND": "NNC(=S)Nc1ccc(S(N)(=O)=O)cc1 [Compound 3a]", "GI50": "> 100 µM"}
{"COMPOUND": "COc1ccc(/C=N/NC(=S)Nc2ccc(S(N)(=O)=O)cc2)cc1 [Compound 4b]", "GI50": "> 100 µM"}
{"COMPOUND": "NS(=O)(=O)c1ccc(NC(=S)N/N=C/c2ccc(F)cc2)cc1 [Compound 4c]", "GI50": "17 µM"}
{"COMPOUND": "NS(=O)(=O)c1cccc(NC(=S)N/N=C/c2ccc(Cl)cc2)c1 [Compound 4j]", "GI50": "59 µM"}

----------
# STUDY TARGET: human CA IX (Homo sapiens, UniProt Q16790)
# PROTOCOL DESCRIPTION: Stopped-flow CO2 hydrase assay, CA IX
# APPLIED CONDITIONS: Ki CA I / Ki CA IX

{"COMPOUND": "NS(=O)(=O)c1ccc(CCNC(=S)N/N=C/c2ccc(Br)cc2)cc1 [Compound 4p]", "STUDY TARGET": "human CA IX (Homo sapiens, UniProt Q16790)", "Selectivity Ratio I/IX": 12.2}
{"COMPOUND": "NS(=O)(=O)c1ccc(CCNC(=S)N/N=C/c2ccc(F)cc2)cc1 [Compound 4n]", "STUDY TARGET": "human CA IX (Homo sapiens, UniProt Q16790)", "Selectivity Ratio I/IX": 8.3}
{"COMPOUND": "NNC(=S)Nc1cccc(S(N)(=O)=O)c1 [Compound 3b]", "STUDY TARGET": "human CA IX (Homo sapiens, UniProt Q16790)", "Selectivity Ratio I/IX": 7.9}
{"COMPOUND": "NS(=O)(=O)c1cccc(NC(=S)N/N=C/c2ccccn2)c1 [Compound 5b]", "STUDY TARGET": "human CA IX (Homo sapiens, UniProt Q16790)", "Selectivity Ratio I/IX": 109.8}
{"COMPOUND": "COc1ccc(/C=N/NC(=S)NCCc2ccc(S(N)(=O)=O)cc2)cc1 [Compound 4m]", "STUDY TARGET": "human CA IX (Homo sapiens, UniProt Q16790)", "Selectivity Ratio I/IX": 21.2}
{"COMPOUND": "NNC(=S)NCCc1ccc(S(N)(=O)=O)cc1 [Compound 3c]", "STUDY TARGET": "human CA IX (Homo sapiens, UniProt Q16790)", "Selectivity Ratio I/IX": 6.1}
{"COMPOUND": "NS(=O)(=O)c1ccc(CCNC(=S)N/N=C/c2ccccc2)cc1 [Compound 4l]", "STUDY TARGET": "human CA IX (Homo sapiens, UniProt Q16790)", "Selectivity Ratio I/IX": 18.4}
{"COMPOUND": "NS(=O)(=O)c1ccc(CCNC(=S)N/N=C/c2ccc(Cl)cc2)cc1 [Compound 4o]", "STUDY TARGET": "human CA IX (Homo sapiens, UniProt Q16790)", "Selectivity Ratio I/IX": 15.2}
{"COMPOUND": "NS(=O)(=O)c1ccc(CCNC(=S)N/N=C/c2ccccn2)cc1 [Compound 5c]", "STUDY TARGET": "human CA IX (Homo sapiens, UniProt Q16790)", "Selectivity Ratio I/IX": 9.5}
